target: IKZF2 (Homo sapiens (Human), UniProt Q96SW2+Q9UKS7); assay: In vitro IKZF2 FACS Assay in Jurkat cells; type: cell-based; conditions: 24 hrs, half maximal degradation concentration
Sequence (Q9UKS7 whole entry): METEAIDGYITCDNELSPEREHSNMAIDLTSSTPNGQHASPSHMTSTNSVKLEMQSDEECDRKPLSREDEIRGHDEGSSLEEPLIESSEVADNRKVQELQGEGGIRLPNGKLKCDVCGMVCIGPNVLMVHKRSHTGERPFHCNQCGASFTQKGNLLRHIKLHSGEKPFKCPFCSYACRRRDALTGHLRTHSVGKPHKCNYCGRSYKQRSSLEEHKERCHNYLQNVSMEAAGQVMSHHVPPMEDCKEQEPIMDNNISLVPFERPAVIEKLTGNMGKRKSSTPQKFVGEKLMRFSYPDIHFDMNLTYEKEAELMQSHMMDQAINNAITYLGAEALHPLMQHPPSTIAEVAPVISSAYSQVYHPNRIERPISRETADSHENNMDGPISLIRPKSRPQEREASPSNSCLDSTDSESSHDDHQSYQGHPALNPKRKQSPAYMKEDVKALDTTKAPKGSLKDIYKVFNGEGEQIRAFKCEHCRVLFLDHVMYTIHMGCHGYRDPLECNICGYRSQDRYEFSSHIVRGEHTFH
Sequence (Q96SW2 whole entry): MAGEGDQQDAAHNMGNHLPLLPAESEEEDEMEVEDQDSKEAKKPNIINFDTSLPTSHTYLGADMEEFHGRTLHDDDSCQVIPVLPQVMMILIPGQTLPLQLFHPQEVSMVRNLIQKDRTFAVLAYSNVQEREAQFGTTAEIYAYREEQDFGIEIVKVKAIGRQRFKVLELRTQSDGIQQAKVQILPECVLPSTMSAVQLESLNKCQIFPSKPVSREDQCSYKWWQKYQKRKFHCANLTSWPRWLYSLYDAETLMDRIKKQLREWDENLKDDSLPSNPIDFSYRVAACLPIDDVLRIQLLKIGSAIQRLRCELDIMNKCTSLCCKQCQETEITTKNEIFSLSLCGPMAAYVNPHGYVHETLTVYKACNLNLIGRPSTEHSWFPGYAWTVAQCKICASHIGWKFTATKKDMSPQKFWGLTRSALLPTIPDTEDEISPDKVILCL
Sequence (Q16531 2-1140 partner): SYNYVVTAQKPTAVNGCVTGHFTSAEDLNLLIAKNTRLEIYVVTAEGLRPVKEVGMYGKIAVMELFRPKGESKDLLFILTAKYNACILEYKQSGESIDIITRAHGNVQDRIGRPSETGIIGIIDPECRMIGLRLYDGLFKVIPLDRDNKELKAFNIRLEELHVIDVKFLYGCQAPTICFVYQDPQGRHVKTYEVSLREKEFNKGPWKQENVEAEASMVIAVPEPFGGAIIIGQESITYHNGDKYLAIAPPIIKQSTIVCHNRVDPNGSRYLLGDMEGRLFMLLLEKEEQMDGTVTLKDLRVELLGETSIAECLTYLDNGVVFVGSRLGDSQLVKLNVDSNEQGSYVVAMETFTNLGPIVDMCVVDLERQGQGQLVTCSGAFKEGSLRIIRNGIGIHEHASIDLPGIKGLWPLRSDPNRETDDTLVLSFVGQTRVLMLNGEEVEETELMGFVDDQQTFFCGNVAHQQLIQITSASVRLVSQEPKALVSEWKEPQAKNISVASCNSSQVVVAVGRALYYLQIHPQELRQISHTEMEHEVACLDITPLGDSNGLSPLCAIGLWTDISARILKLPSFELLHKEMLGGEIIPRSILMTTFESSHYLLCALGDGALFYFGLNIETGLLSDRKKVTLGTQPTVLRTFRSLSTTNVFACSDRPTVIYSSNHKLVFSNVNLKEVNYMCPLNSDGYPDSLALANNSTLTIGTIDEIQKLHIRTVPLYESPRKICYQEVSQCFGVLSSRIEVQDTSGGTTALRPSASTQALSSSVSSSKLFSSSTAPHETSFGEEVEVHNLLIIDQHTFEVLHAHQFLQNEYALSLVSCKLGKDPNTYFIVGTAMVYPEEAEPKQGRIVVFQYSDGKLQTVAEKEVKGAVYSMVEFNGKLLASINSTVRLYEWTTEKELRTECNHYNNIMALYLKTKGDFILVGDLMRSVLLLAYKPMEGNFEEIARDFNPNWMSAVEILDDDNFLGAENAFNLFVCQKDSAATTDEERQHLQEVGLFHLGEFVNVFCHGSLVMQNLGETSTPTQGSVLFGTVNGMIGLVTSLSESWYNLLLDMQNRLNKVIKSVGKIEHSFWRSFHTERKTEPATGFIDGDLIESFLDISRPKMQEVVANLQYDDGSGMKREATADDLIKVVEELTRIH
metric-name: DC50

| molecule | DC50 |
| --- | --- |
| O=C1CCC(N2Cc3cc(-c4ncc5ccc(CN6CCCC6)cn45)ccc3C2=O)C(=O)N1 (stereo not drawn) [Example 53] | > 1 µM |
| O=C1CCC(N2Cc3c(ccc(-c4cc(CN5CCCC5)cc5cncn45)c3F)C2=O)C(=O)N1 (stereo not drawn) [Example 27] | 0.01 to 0.1 µM |
| CC(C)Nc1n[nH]c2c(CN3CC4COCC4C3)cc(-c3ccc4c(c3F)CN(C3CCC(=O)NC3=O)C4=O)nc12 (stereo not drawn) [Example 288] | 0.01 to 0.1 µM |
| O=C1CCC(N2Cc3c(ccc(-c4cc(CN5CCCC5)c5[nH]nc(NC6CCC6)c5n4)c3F)C2=O)C(=O)N1 (stereo not drawn) [Example 295] | 0.001 to 0.01 µM |
| O=C1CCC(N2Cc3cc(-c4cc(CN5CCCC5)c5cnn(C6COC6)c5n4)ccc3C2=O)C(=O)N1 (stereo not drawn) [Example 203] | 0.001 to 0.01 µM |

We next turn to a different molecule, shown below.
Quick one: DC50 of COc1c(-c2cc(CN3CCCC3)cc3cncn23)ccc2c1CN(C1CCC(=O)NC1=O)C2=O (stereo not drawn) [Example 31] ?
> 1 µM

---

target: IKZF2 (Homo sapiens (Human), UniProt Q96SW2+Q9UKS7); test: In vitro IKZF2 HiBit Assay (HEK293T Flp-in-HiBiT cells); format: cell-based; settings: HEK293T Flp-in-HiBiT cells, 6 hrs incubation; read-out: IKZF2 HiBit DC50
metric-name: DC50

| compound | meas-value |
| --- | --- |
| Cn1ccc2c(CN3CCC3)cc(-c3ccc4c(c3)CN(C3CCC(=O)NC3=O)C4=O)nc21 (stereo not drawn) | < 1 nM |
| O=C1CCC(N2Cc3cc(-c4cc(CN5CCCC5)cc5cncn45)ccc3C2=O)C(=O)N1 (stereo not drawn) | 10 to 100 nM |
| O=C1CCC(N2Cc3cc(-c4cc(CN5CCCC5)c5ncn(C6CCC6)c5n4)ccc3C2=O)C(=O)N1 (stereo not drawn) | 1 to 10 nM |
| Cn1ccc2c(CN3CCC(CO)C3)cc(-c3ccc4c(c3)CN(C3CCC(=O)NC3=O)C4=O)nc21 (stereo not drawn) | 1 to 10 nM |
| Cn1ccc2c(CN3CCC(C(F)(F)F)CC3)cc(-c3ccc4c(c3)CN(C3CCC(=O)NC3=O)C4=O)nc21 (stereo not drawn) | 1 to 10 nM |
| O=C1CCC(N2Cc3c(ccc(-c4cc(CN5CC6COCC6C5)c5ccn(C6CS(=O)(=O)C6)c5n4)c3F)C2=O)C(=O)N1 (stereo not drawn) | 1 to 10 nM |
| O=C1CCC(N2Cc3cc(-c4cc(CN5CCCC5)c5ccn(C6CC(F)(F)C6)c5n4)ccc3C2=O)C(=O)N1 (stereo not drawn) | < 1 nM |
| Cc1cc(-c2ccc3c(c2)CN(C2CCC(=O)NC2=O)C3=O)nc2oc(CN3CCCC3)nc12 (stereo not drawn) | 10 to 100 nM |
| CO[C@H]1C[C@@H](Oc2ccnc3c(CN4CCCC4)cc(-c4ccc5c(c4)CN(C4CCC(=O)NC4=O)C5=O)nc23)C1 (stereo partly drawn) | 10 to 100 nM |
| O=C1CCC(N2Cc3cc(-c4cc(CN5CCCC5C(F)F)c5ccn(C6COC6)c5n4)ccc3C2=O)C(=O)N1 (stereo not drawn) | 10 to 100 nM |

Quick one: DC50 of Nc1n[nH]c2c(CN3CC(F)C3)cc(-c3ccc4c(c3)CN(C3CCC(=O)NC3=O)C4=O)nc12 (stereo not drawn) ?
10 to 100 nM

Repeat for the following compound: COCC1CCN(Cc2cc(-c3ccc4c(c3)CN(C3CCC(=O)NC3=O)C4=O)nc3c2ccn3C)C1 (stereo not drawn)
< 1 nM

Repeat for the following compound: O=C1CCC(N2Cc3cc(-c4cc(CN5CCCC5)c5[nH]ncc5n4)ccc3C2=O)C(=O)N1 (stereo not drawn)
1 to 10 nM

Repeat for the following compound: O=C1CCC(N2Cc3cc(-c4cc(CN5CCCC5)c5c(ccn5CCO)n4)ccc3C2=O)C(=O)N1 (stereo not drawn)
10 to 100 nM

Repeat for the following compound: O=C1CCC(N2Cc3c(ccc(-c4cc(CN5CCC6(CC5)COC6)c5ccn(C6CS(=O)(=O)C6)c5n4)c3F)C2=O)C(=O)N1 (stereo not drawn)
1 to 10 nM

---

biological target: IKZF1 (Homo sapiens (Human), UniProt Q13422+Q96SW2); test: In vitro IKZF1 HiBit Assay (HEK293T Flp-in-HiBiT-IKZF1 stable cell line); assay type: cell-based; details: HEK-293T; HEK293T Flp-in-HiBiT-IKZF1 stable cell line, 6 hrs incubation; read-out: IKZF1 HiBit Dmax (%)
Sequence (Q13422 whole entry): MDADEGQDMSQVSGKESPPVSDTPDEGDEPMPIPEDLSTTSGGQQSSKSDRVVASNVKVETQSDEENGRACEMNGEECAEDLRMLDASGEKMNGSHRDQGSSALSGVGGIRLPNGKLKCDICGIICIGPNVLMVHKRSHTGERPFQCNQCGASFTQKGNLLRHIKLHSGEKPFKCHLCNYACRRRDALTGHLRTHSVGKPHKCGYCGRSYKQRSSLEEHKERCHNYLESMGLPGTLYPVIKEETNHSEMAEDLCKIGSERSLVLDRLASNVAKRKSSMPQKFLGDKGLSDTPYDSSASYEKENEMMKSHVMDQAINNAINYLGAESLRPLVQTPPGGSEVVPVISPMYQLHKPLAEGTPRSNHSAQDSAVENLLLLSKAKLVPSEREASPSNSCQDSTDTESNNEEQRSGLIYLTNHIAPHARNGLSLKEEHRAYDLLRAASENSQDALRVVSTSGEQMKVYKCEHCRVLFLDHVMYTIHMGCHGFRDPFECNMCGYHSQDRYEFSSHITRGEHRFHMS
Sequence (Q96SW2 whole entry): as the sequence (Q96SW2 whole entry) above
Sequence (Q16531 2-1140 partner): as the sequence (Q16531 2-1140 partner) above
metric-name: Dmax

Illustrative cases are given below, each with its answer.
| compound | Dmax |
| --- | --- |
| Cn1cc2c(CN3CCCC3)cc(-c3ccc4c(c3)CN(C3CCC(=O)NC3=O)C4=O)nc2n1 (centres unmarked) | 20 to 40% |
| O=C1CCC(N2Cc3cc(-c4cc(CN5CCCCC5)cc5cncn45)ccc3C2=O)C(=O)N1 (centres unmarked) | < 20% |
| Cn1ccc2c(CN3CCCC3)c(Cl)c(-c3ccc4c(c3F)CN(C3CCC(=O)NC3=O)C4=O)nc21 (centres unmarked) | < 20% |
| Cn1cnc(-n2ccc3c(CN4CCCC4)cc(-c4ccc5c(c4)CN([C@H]4CCC(=O)NC4=O)C5=O)nc32)c1 | < 20% |
| CC1c2cc(-c3cc(CN4CCCC4)c4ccn(C5COC5)c4n3)ccc2C(=O)N1C1CCC(=O)NC1=O (centres unmarked) | < 20% |
| CC(Oc1ccnc2c(CN3CCCC3)cc(-c3ccc4c(c3)CN(C3CCC(=O)NC3=O)C4=O)nc12)C(F)(F)F (centres unmarked) | < 20% |

API: value(readout= Dmax, system= IKZF1 (Homo sapiens (Human), UniProt Q13422+Q96SW2), query= CS(=O)(=O)CCn1ccc2c(CN3CCCC3)cc(-c3ccc4c(c3)CN(C3CCC(=O)NC3=O)C4=O)nc21 (centres unmarked) )
< 20%

Repeat for the following compound: Cn1ccc2c(CN3CCCCC3)cc(-c3ccc4c(c3)CN(C3CCC(=O)NC3=O)C4=O)nc21 (centres unmarked)
20 to 40%

Repeat for the following compound: Nc1n[nH]c2c(CN3CCC4(CC3)COC4)cc(-c3ccc4c(c3)CN(C3CCC(=O)NC3=O)C4=O)nc12 (centres unmarked)
20 to 40%

---

molecular target: CRBN/DDB1 (Homo sapiens (Human), UniProt Q96SW2); assay: IC50 measurements for binding to CRBN/DDB1 (HTRF); conditions: His tagged CRBN+DDB, Cy5-labeled Thalidomide probe, one hour
Sequence (Q96SW2 whole entry, species assumed): as the sequence (Q96SW2 whole entry) above
Sequence (Q16531 whole entry partner, species assumed): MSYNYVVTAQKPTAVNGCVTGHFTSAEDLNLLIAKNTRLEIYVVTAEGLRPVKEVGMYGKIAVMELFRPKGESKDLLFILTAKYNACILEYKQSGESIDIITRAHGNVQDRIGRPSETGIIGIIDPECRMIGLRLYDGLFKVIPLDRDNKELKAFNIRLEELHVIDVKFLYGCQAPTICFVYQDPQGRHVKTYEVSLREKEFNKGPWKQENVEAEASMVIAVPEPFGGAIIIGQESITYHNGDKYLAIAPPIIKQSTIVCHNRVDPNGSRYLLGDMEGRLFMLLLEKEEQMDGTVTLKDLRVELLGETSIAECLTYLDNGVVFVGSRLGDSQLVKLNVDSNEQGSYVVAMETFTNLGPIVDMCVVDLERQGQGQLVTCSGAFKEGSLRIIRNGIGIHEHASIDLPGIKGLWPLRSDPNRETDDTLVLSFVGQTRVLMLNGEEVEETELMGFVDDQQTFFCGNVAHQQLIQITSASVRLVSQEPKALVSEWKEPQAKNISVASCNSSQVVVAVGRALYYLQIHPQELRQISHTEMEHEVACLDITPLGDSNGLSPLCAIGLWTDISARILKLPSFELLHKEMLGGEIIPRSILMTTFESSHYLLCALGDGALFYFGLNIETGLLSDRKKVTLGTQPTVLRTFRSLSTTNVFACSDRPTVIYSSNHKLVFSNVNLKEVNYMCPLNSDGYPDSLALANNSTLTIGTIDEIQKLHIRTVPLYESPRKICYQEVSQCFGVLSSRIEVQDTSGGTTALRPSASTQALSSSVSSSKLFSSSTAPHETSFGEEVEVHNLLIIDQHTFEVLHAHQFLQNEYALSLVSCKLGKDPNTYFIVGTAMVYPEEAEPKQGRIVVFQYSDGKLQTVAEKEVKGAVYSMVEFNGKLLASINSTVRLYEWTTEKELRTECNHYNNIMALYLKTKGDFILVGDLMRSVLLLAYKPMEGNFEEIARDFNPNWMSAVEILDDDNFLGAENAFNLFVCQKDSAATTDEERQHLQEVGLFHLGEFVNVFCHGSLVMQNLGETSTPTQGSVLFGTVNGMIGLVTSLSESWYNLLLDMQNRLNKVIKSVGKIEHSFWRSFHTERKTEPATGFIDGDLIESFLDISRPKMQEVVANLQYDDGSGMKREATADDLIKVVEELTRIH
metric-name: IC50

Illustrative cases are given below, each with its answer.
| compound | meas-value |
| --- | --- |
| O=C1CCC(N2Cc3cc(-c4cc(CN5CCC(F)C5)c5ccn(C6COC6)c5n4)ccc3C2=O)C(=O)N1 (stereo not shown) [Example 157] | 500 to 1000 nM |
| Cn1ccc2c(CN3CCC4(CC3)COC4)cc(-c3ccc4c(c3)CN(C3CCC(=O)NC3=O)C4=O)nc21 (stereo not shown) [Example 73] | 100 to 500 nM |
| Cn1ccc2c(CN3CCC(F)(F)CC3)cc(-c3ccc4c(c3)CN(C3CCC(=O)NC3=O)C4=O)nc21 (stereo not shown) [Example 60] | 500 to 1000 nM |
| Nc1n[nH]c2c(CN3CCC(F)CC3)cc(-c3ccc4c(c3)CN(C3CCC(=O)NC3=O)C4=O)nc12 (stereo not shown) [Example 212] | < 100 nM |
| O=C1CCC(N2Cc3cc(-c4cc(CNCCc5ccc(Cl)cc5Cl)cn5ccnc45)ccc3C2=O)C(=O)N1 (stereo not shown) [Example 40] | 100 to 500 nM |

Quick one: IC50 of O=C1CCC(N2Cc3cc(-c4cc(CN5CCC(F)CC5)c5ccn(C6COC6)c5n4)ccc3C2=O)C(=O)N1 (stereo not shown) [Example 187] ?
100 to 500 nM

Repeat for the following compound: CC1CCCN(Cc2cc(-c3ccc4c(c3)CN(C3CCC(=O)NC3=O)C4=O)n3cncc3c2)C1 (stereo not shown) [Example 5]
1000 to 5000 nM

---

// reported inhibition at 1 µM per item
target: IKZF2 (Homo sapiens (Human), UniProt Q96SW2+Q9UKS7); experiment: In vitro IKZF2 Western Blot Assay in Jurkat cells; format: cell-based; settings: 24 hrs, 1 μM, read-out: IKZF2 degradation (%) @ μM 1

Illustrative cases are given below, each with its answer.
| molecule | inhibition at 1 µM |
| --- | --- |
| O=C1CCC(N2Cc3cc(-c4cc(CN5CCC(C(F)(F)F)CC5)cn5ccnc45)ccc3C2=O)C(=O)N1 (stereo not shown) | < 30% |
| O=C1CCC(N2Cc3cc(-c4cc(CN5CCCC5c5ccccc5)cn5ccnc45)ccc3C2=O)C(=O)N1 (stereo not shown) | < 30% |
| Cc1ccccc1CCNCc1cc(-c2ccc3c(c2)CN(C2CCC(=O)NC2=O)C3=O)c2nccn2c1 (stereo not shown) | < 30% |
| CC(C)(NCc1cc(-c2ccc3c(c2)CN(C2CCC(=O)NC2=O)C3=O)c2nccn2c1)c1ccccc1 (stereo not shown) | > 50% |
| O=C1CCC(N2Cc3cc(-c4cc(CNCCc5c(Cl)cccc5Cl)cn5ccnc45)ccc3C2=O)C(=O)N1 (stereo not shown) | < 30% |

Quick one: inhibition at 1 µM of CC(NCc1cc(-c2ccc3c(c2)CN(C2CCC(=O)NC2=O)C3=O)c2nccn2c1)c1ccccc1 (stereo not shown) ?
> 50%

Repeat for the following molecule: O=C1CCC(N2Cc3cc(-c4cc(CNCCc5ccccc5C(F)(F)F)cn5ccnc45)ccc3C2=O)C(=O)N1 (stereo not shown)
< 30%

Reference source for all entries: patent US20250214991A1
